- Test system: PIK3CG;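 further: KINOMEscan kinase panel screen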
- Test Conditions: concentration: 1 μM,replicates: in singlicate; n = 1
Measured Property: %Inh

1. CCN1CCN(CCCC(=O)Nc2n[nH]c3nc(-c4ccc(O)cc4)c(Br)cc23)CC1 :: 6%
2. COc1cc2c(Nc3ccc(NC(=O)c4ccccc4)cc3)ncnc2cc1OCCCN1CCOCC1 :: 0%
3. Cl.Nc1n[nH]c2cc(-c3ccccn3)ccc12 :: 0%
4. CC(C(=O)NC1CCN(c2ccnc(Nc3ccc(F)cc3)n2)C1)c1ccc(Cl)cc1 (stereo not drawn) :: 0%
5. Cc1ccc2c(-c3ccnc(Nc4ccc(C(F)(F)F)cc4)n3)cnn2n1 :: 48%
6. O=C(NOCC1CC1)c1cc(Br)c(F)c(F)c1Nc1ccc(I)cc1Cl :: 0%
7. COc1cccc(C2=C(Nc3cccc(Cl)c3)C(=O)NC2=O)c1 :: 0%
8. C[C@@H]1CNc2c(sc3ccc4nc(-c5ccc(O)cc5)ccc4c23)C(=O)N1 :: 11%
9. CN1CCN(CCCNc2nccc(-c3c(-c4ccc(F)cc4)nn4cc(C(N)=O)ccc34)n2)CC1 :: 0%
